# experiment: In vivo zebrafish kinetics of BPZ (water exposure, organ concentrations by LC-MS/MS)
# Design: species or system zebrafish (Danio rerio)
# condition: zebrafish, 17 μg/L (water concentration); 17 μg/L in water, female, carcass; observed
parameter measured: Cmax (ng/g)
Please respond with the number in ng/g and leave the unit unwritten.

In: Which Cmax is reported for this compound? Oc1ccc(C2(c3ccc(O)cc3)CCCCC2)cc1 [BPZ, bisphenol Z]
Out: 1120

---

# experiment: In vitro biotransformation rate, rainbow trout liver S9 (OECD TG 319)
# Type: in vitro ADME
# condition: series 1 (s1)
Recorded CL for the following molecules

Known results for molecules:
> print(dat)
                                chem.smiles               val
1  CC(C)(c1cc(Br)c(O)c(Br)c1)c1cc(Br)c(O)c(Br)c1  3.90 mL/(h x mg)
2            CCC(C)(c1ccc(O)cc1)c1ccc(O)cc1  0.92 mL/(h x mg)
3  Oc1ccc(C(c2ccc(O)cc2)(C(F)(F)F)C(F)(F)F)cc1  0.75 mL/(h x mg)
4                   Oc1ccc(Cc2ccc(O)cc2)cc1  0.31 mL/(h x mg)
5      CC(c1ccccc1)(c1ccc(O)cc1)c1ccc(O)cc1  1.79 mL/(h x mg)

In: Which CL is reported for this molecule? `Oc1ccc(C2(c3ccc(O)cc3)CCCCC2)cc1`
Out: 0.33 mL/(h x mg)

In: Which CL is reported for this molecule? `Cc1cc(C(C)(C)c2ccc(O)c(C)c2)ccc1O`
Out: 1.01 mL/(h x mg)

---

# experiment: In vivo zebrafish kinetics of BPZ (water exposure, organ concentrations by LC-MS/MS)
# Parameters: species or system zebrafish (Danio rerio)
# condition: zebrafish; 17 μg/L in water, female, ovaries; observed
parameter measured: Cmax (ng/g)
Please respond with the number in ng/g and leave the unit unwritten.

In: Which Cmax is reported for this compound? Oc1ccc(C2(c3ccc(O)cc3)CCCCC2)cc1 [BPZ, bisphenol Z]
Out: 270

---

# experiment: In vivo zebrafish kinetics of BPZ (water exposure, organ concentrations by LC-MS/MS)
# Parameters: species or system zebrafish (Danio rerio)
# condition: female, zebrafish, brain, other: water exposure, 10 µg/L, female zebrafish, 48 h; read-out: Mean concentration, brain
parameter measured: concentration at 48 h (ng/g)
Please respond with the number in ng/g and leave the unit unwritten.

In: Which concentration at 48 h is reported for this compound? `Oc1ccc(C2(c3ccc(O)cc3)CCCCC2)cc1`
Out: 64.4

---

# experiment: In vivo zebrafish kinetics of BPZ (water exposure, organ concentrations by LC-MS/MS)
# Parameters: species or system zebrafish (Danio rerio)
# condition: female, zebrafish, whole body, other: exposure via tank water, 10 μg/L (nominal water concentration), female zebrafish, 486 h (depuration phase); read-out: Mean concentration, whole body (calculated)
# Experimental: At sampling, adult fish were euthanized by immersion in a sodium bicarbonate-buffered tricaine methanesulfonate solution (MS222: 500 mg/L) and decapitated thereafter. […] 176The extracts were measured on a LC (ExionLC, Sciex) coupled with a Turbo V Ion source (ESI) […] 195plus the average blank value. The limit of quantification (LOQ) is defined as 3.3 * LOD value […] Detection and report limits (calculated on based of average sample intake)
parameter measured: concentration at 486 h

In: Which concentration at 486 h is reported for this molecule? Oc1ccc(C2(c3ccc(O)cc3)CCCCC2)cc1 [BPZ, bisphenol Z]
Out: 35.1 ng/g
